The reported measurements were obtained from patent US20120207760A1.

Quick reference for OD450 among some binders
# Assay system: Hemagglutinin of influenza A/Solomon Islands/3/06 (H1N1), on inactivated whole virions (Influenza A virus A/Solomon …)
# Assay notes: ELISA, B cell culture supernatant on inactivated whole virions
Parameter measured: OD450 (OD450)

Binder: TCN-546 (5089_L08) (antibody, V domains shown) VH: QVQLQQWGAGLLKPSETLSLTCGVYGGSLSDYYWSWIRQPPGKGLEWIGEINHSGGTNYNPSLKRRVTISVDTSKKQFSLKMNSVTAADTAVYYCARGTDPDTEVYCRAGNCAAFDFWGQGTLVTVSS VL: EIVLTQSPGTLSLSPGERATLSCRASHFVIGRAVAWYQQKPGQAPRLLIYGASSRATGIPDRFSGSGSGTDFTLTISRLETEDFAVFYCQHYGSSPRYAFGQGTKLEIK
Obs value: 1.95

Binder: TCN-556 (5089_K12) (antibody, V domains shown) VH: QVQLVQSGAEVKKPGASVKVSCKASGYTFIGYDMHWVRQAPGQGLEWMGWINAKRGGTNYAQKFQGRVTMTRDTSISTAYMELNSLRSDDTAVYYCARGVGSRTTIFGVLNPEFDYWGQGTLVTVSS VL: QSALTQPPSASGSPGQSVTISCTGSSSDVGGYDYVSWYQQHPGKAPKLLIYEVTKRPSGVPDRFSGSKSGNTASLTVSGLQAEDEADYYCSSYAGNYNHVFGPGTKVTVL
Obs value: 2.7

Binder: TCN-547 (5092_F11) (antibody, V domains shown) VH: QVQLQESGPGLVKPSQTLSLTCTVSGDSISSVDHYWSWIRQHPVKGLEWIGFMYYSASTYYNPSLKSRVTISTDTSKNQFSLRLSSVTAADTAVYYCARGTCAGDCSLHYYYYGLDVWGQGRTVTVSS VL: DIQMTQSPSSLSASVGDRVTITCRASQSISSYLNWYQHKPGKAPKVLMYAVSILQSGVPSRFSGSGSGADFTLTISSLQPEDFATYYCQQSYSSPLTFGGGTKVEIK
Obs value: 0.06
